Measured values drawn from patent US20170129940A1 for this set.

Listing of entries alongside the reported 50% Neutralization Mo-DC.
TARGET_UNDER_TEST: hCMV gB (expressed in HEK293T cells) (human cytomegalovirus, UniProt P06473 32-906)
Sequence (P06473 32-906 limits assumed): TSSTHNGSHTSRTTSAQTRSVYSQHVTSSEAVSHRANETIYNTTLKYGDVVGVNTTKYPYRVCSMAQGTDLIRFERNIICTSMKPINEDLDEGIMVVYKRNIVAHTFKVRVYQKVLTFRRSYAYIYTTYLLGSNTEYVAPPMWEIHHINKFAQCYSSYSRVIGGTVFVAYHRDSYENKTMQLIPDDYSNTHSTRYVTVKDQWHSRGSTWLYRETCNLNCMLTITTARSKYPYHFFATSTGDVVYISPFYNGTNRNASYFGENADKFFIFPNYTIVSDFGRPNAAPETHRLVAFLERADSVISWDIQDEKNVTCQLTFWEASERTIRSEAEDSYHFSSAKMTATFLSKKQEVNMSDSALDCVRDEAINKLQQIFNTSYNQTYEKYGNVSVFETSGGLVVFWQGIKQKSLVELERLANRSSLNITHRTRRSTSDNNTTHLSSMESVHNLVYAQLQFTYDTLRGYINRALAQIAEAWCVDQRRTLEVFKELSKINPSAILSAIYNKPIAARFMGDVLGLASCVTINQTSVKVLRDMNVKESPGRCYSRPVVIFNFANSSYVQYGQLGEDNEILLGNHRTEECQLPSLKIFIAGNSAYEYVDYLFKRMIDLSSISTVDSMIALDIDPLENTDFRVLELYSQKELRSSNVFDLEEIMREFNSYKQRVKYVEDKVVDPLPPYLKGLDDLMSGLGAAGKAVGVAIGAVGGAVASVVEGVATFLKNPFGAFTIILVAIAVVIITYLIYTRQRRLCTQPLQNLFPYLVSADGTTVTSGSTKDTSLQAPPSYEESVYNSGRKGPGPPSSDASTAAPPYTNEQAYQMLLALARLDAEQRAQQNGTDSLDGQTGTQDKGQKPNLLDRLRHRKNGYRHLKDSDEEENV
ASSAY_EXPLANATION: cell-based or functional assay
ENDPOINT: 50% Neutralization Mo-DC (µg/mL)

INSERT INTO results (binder, endpoint, measure_unit, test_result) VALUES
  ('7H3 (antibody, V domains shown, human IgG; also called 7H3-biotin) VH: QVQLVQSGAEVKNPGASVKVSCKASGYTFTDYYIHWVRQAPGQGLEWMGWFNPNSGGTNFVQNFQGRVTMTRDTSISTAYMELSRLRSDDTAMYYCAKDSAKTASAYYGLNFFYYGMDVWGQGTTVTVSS VL: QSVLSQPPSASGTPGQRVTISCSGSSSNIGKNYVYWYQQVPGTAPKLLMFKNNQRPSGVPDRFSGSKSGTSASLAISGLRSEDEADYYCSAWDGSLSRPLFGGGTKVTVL', '50% Neutralization Mo-DC', 'µg/mL', 0.06),
  ('6B4 (antibody, V domains shown, human IgG; also called 6B4-biotin) VH: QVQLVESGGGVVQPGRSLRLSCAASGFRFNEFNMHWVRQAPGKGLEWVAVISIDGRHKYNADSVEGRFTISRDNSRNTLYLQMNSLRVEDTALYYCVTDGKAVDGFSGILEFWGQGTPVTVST VL: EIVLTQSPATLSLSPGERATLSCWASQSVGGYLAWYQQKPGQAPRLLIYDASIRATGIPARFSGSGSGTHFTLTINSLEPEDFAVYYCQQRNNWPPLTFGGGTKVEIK', '50% Neutralization Mo-DC', 'µg/mL', 0.11),
  ('10C6 (antibody, V domains shown, human IgG; also called 10C6-biotin) VH: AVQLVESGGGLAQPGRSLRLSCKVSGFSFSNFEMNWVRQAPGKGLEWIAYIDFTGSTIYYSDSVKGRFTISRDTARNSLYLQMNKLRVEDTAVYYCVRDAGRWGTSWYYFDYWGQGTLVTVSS VL: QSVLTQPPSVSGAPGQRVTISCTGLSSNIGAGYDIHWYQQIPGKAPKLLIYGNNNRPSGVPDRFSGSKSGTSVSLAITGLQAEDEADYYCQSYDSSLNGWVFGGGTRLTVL', '50% Neutralization Mo-DC', 'µg/mL', 0.02),
  ('5F1 (antibody, V domains shown, human IgG; also called 5F1-biotin) VH: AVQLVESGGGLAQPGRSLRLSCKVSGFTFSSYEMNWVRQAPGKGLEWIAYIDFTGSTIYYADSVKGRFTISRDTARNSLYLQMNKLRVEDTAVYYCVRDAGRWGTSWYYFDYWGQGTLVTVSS VL: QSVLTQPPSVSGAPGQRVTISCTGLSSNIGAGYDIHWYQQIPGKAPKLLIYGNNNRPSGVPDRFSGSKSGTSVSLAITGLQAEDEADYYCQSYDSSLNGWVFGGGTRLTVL', '50% Neutralization Mo-DC', 'µg/mL', 0.05);
